- Test system: P388 leukemia ip, CD2F1 mice, survival T/C
- measurement.description: NCI In Vivo Anticancer Drug Screen. Data for tumor model P388 Leukemia (intraperitoneal) in CD2F1 (CDF1) mice
- assay.conditions: endpoint: median survival time; dose: 200.0 mg/kg/injection; schedule: Q01DX001 (ip); vehicle: saline with Tween-80; higher = longer survival
Toxic doses and inconclusive results are not listed.
Can you tell me T/C for the items I'm about to list?

So for N#CCc1nc2ncc(Br)cc2[nH]1 , the logged T/C turned out to be 104 % of control

So for On1cccc2c(Br)cnc1-2 , the logged T/C turned out to be 99 % of control

So for COC(=O)C(C)c1[nH]c2ccccc2c1[Se]c1ccccc1 (centres undefined) , the logged T/C turned out to be 106 % of control

So for Cc1c(-c2ccccc2)oc(=O)c(Cl)c1N(C)c1ccccc1 , the logged T/C turned out to be 99 % of control

Reference source: PubChem BioAssay AID330
